Assign umami intensity (points) to each entry below.
method-description: Sensory evaluation of umami enhancement function, naringenin-related flavonoid components in umami solution (Example 4)
condition-parameters: 30 ppm in NC (sodium glutamate 0.1%); scale water = 0, NC = 0.30; panel of three, average
Write it as a number; the unit points goes unstated.

Exam item: Determine from records and report umami intensity (points) for O=C1CC(c2ccccc2)Oc2cc(O)cc(O)c21 (stereo not drawn) [Pinocembrin]
Marked response: 0.50

Exam item: # return recorded umami intensity (points) for input COc1ccc(-c2cc(=O)c3c(O)cc(O)cc3o2)cc1 [Acacetin, 5,7-dihydroxy-4-methoxyflavone]
Marked response: 0.50

Exam item: Supply measured umami intensity (points) of O=c1cc(-c2ccc(O)cc2)oc2cc(O)cc(O)c12 [Apigenin] in your reply.
Marked response: 0.56

Exam item: Please look at this compound and report its umami intensity (points): O=c1cc(-c2ccc(O)c(O)c2)oc2cc(O)cc(O)c12 [Luteolin]
Marked response: 0.43

Exam item: Report umami intensity (points) for O=c1c(O)c(-c2ccc(O)c(O)c2)oc2cc(O)cc(O)c12 [Quercetin, reference compound]
Marked response: 0.30

Exam item: Give recorded umami intensity (points). O=C1C[C@@H](c2ccc(O)cc2)Oc2cc(O)ccc21 [Liquiritigenin, (2S)-4′,7-dihydroxyflavan-4-one]
Marked response: 0.56
